Reference for the values: paper PMC9482650

Target: MAST2, Q6P0Q8
Sequence (Q6P0Q8 1099-1202): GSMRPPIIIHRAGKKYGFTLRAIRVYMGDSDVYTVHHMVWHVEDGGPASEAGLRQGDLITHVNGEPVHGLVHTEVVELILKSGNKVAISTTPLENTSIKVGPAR
Assay: holdup assay
Design: key: below the threshold = too weak to quantify, mostly under pKd 3.1 to 4
Conditions: plain residues with an end cap or a label only (N-terminal biotin on a linker: ahx)
Reported property: pKd

| Binder | Observed result |
| --- | --- |
| PSASCAVTAA [PDLIM4, P50479;P50479-2] | below the threshold |
| HNAFLSVTTV [PDZRN4, Q6ZMN7] | below the threshold |
| ESLLLGPSNF [SHROOM4, Q9ULL8] | below the threshold |
